B1: tRNA (parent)
chain: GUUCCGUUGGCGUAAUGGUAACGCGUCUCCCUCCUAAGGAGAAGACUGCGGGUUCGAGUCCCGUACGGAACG

variants of: B1; assay: yeast fitness relative to wild type (ratio to wild type); higher = fitter; tRNA-Arg(CCU), competitive growth, 37 C, YPD
Variants at the floor of the assay were thinned out.
Each entry gets Not satisfied if its yeast fitness stays under 0.6, and Satisfied if its yeast fitness is 0.6 or above.

Answered examples (2):
{"columns": ["Alteration", "Discrete Label"],
 "data": [
  ["C27G U28A A43U", "Not satisfied"],
  ["G6C C34U G52C", "Not satisfied"]
]}

Field: next variant
Data request: Please check the record C29A G41A A43C A69C and state if its yeast fitness is at or above 0.6.
Data returned: Not satisfied
